Let's look at some compounds and their measured inhibition in vivo at 150 mg/kg.
Tested on: 6C3HED lymphosarcoma
Assay: animal or person
Format: in vivo, C3H mice
Conditions: Mus musculus, 6C3HED, 120 h; 150 mg/kg, oral gavage, daily for 10 days; tumor measured five days after treatment ended; read-out: Percent Inhibition of tumor growth
# unit: % | format: bare number

CPD_SMILES: O=C(Nc1ccc(Cl)cc1)NS(=O)(=O)c1csc2ccccc12
ENDPOINT: inhibition in vivo at 150 mg/kg
U: %
NUMERIC_READOUT: 43
//
CPD_SMILES: O=C(Nc1ccc(Cl)cc1)NS(=O)(=O)c1cccc2occc12
ENDPOINT: inhibition in vivo at 150 mg/kg
U: %
NUMERIC_READOUT: 84
//
CPD_SMILES: O=C(Nc1ccc(Br)cc1)NS(=O)(=O)c1cc2ccccc2o1
ENDPOINT: inhibition in vivo at 150 mg/kg
U: %
NUMERIC_READOUT: 48

Consider O=C(Nc1ccc(Cl)cc1)NS(=O)(=O)c1cc2ccccc2o1 . Its measured inhibition in vivo at 150 mg/kg is 84

Consider O=C(Nc1ccc(Cl)cc1)NS(=O)(=O)c1ccc2cc[nH]c2c1 . Its measured inhibition in vivo at 150 mg/kg is 37

Consider Cc1ccc(NC(=O)NS(=O)(=O)c2ccc3occc3c2)cc1 . Its measured inhibition in vivo at 150 mg/kg is 84

====

Test system: 6C3HED lymphosarcoma
Assay: animal or person
Format: in vivo, C3H mice
Details: mouse, in vivo
ENDPOINT: Toxic/Total (mice which died relative to total number of animals in the group)

Consider the reported Toxic/Total (mice which died relative to total number of animals in the group) for these compounds:
CPD_SMILES: Cc1ccc(NC(=O)NS(=O)(=O)c2cc3ccccc3o2)cc1
RESULT: 0/10
//
CPD_SMILES: O=C(Nc1ccc(Cl)cc1)NS(=O)(=O)c1csc2ccccc12
RESULT: 0/10

Consider O=C(Nc1ccc(Cl)cc1)NS(=O)(=O)c1cc2ccccc2o1 . Its measured Toxic/Total (mice which died relative to total number of animals in the group) is 4/10

Consider O=C(Nc1ccc(Cl)cc1)NS(=O)(=O)c1ccc2sccc2c1 . Its measured Toxic/Total (mice which died relative to total number of animals in the group) is 0/8

Consider O=C(Nc1ccc(Cl)cc1)NS(=O)(=O)c1ccc2cc[nH]c2c1 . Its measured Toxic/Total (mice which died relative to total number of animals in the group) is 0/10

Consider O=C(Nc1ccc(Br)cc1)NS(=O)(=O)c1cc2ccccc2o1 . Its measured Toxic/Total (mice which died relative to total number of animals in the group) is 1/10

====

System: 6C3HED lymphosarcoma
Assay: animal or person
Assay type: in vivo, C3H mice
Conditions: Mus musculus, 6C3HED, 120 h; 150 mg/kg, oral gavage, daily for 10 days; tumor measured five days after treatment ended; read-out: Percent Inhibition of tumor growth
ENDPOINT: inhibition in vivo at 150 mg/kg (%)
# unit: % | format: bare number

Consider the reported inhibition in vivo at 150 mg/kg for these compounds:
COMPOUND: O=C(Nc1ccc(Cl)cc1)NS(=O)(=O)c1cc2ccccc2s1 [Example 11]
TESTED_ON: 6C3HED lymphosarcoma
inhibition in vivo at 150 mg/kg [%]: 47
--
COMPOUND: Cc1ccc(NC(=O)NS(=O)(=O)c2cc3ccccc3o2)cc1 [Example 2]
TESTED_ON: 6C3HED lymphosarcoma
inhibition in vivo at 150 mg/kg [%]: 11
--
COMPOUND: O=C(Nc1ccc(Cl)cc1)NS(=O)(=O)c1ccc2occc2c1 [Example 6, hemihydrate]
TESTED_ON: 6C3HED lymphosarcoma
inhibition in vivo at 150 mg/kg [%]: 100
--
COMPOUND: O=C(Nc1ccc(Cl)cc1)NS(=O)(=O)c1cc2ccccc2[nH]1 [Example 9]
TESTED_ON: 6C3HED lymphosarcoma
inhibition in vivo at 150 mg/kg [%]: 26

Alright, here's another compound for you.
Consider O=C(Nc1ccc(Cl)c(Cl)c1)NS(=O)(=O)c1cc2ccccc2o1 [Example 3] . Its measured inhibition in vivo at 150 mg/kg is 28
